Every entry's value here was drawn from patent US6046171A.

Test system: Staphylococcus aureus A5177
readout: MIC (µg/mL)
// return numeric value only (unit: µg/mL, not printed)

Ask: Given the compound `CC[C@H]1OC(=O)[C@H](C)[C@@H](O[C@H]2C[C@@](C)(OC)[C@@H](OC(C)=O)[C@H](C)O2)[C@H](C)[C@@H](O[C@@H]2O[C@H](C)C[C@H](N(C)C)[C@H]2O)[C@@]2(C)C[C@@H](C)C(=O)[C@H](C)[C@H]3N(CCNCc4cccc(c4)C=CCO2)C(=O)O[C@]13C` , what is its reported MIC?
Result: 25

Ask: Any idea what MIC was measured for CC[C@H]1OC(=O)[C@H](C)[C@@H](O[C@H]2C[C@@](C)(OC)[C@@H](O)[C@H](C)O2)[C@H](C)[C@@H](O[C@@H]2O[C@H](C)C[C@H](N(C)C)[C@H]2O)[C@@]2(C)C[C@@H](C)C(=O)[C@H](C)[C@H]3N(CC(O)CCCCO2)C(=O)O[C@]13C (stereo partly shown) ?
Result: 12.5

Ask: Field request: MIC | item: `CC[C@H]1OC(=O)[C@H](C)C(=O)[C@H](C)[C@@H](O[C@@H]2O[C@H](C)C[C@H](N(C)C)[C@H]2O)[C@@]2(C)C[C@@H](C)C(=O)[C@H](C)[C@H]3N(CCOCc4ccccc4C=CCO2)C(=O)O[C@]13C`
Result: 0.78

Ask: Name the recorded MIC for `CC[C@H]1OC(=O)[C@H](C)[C@@H](O[C@H]2C[C@@](C)(OC)[C@@H](O)[C@H](C)O2)[C@H](C)[C@@H](O[C@@H]2O[C@H](C)C[C@H](N(C)C)[C@H]2O)[C@@]2(C)C[C@@H](C)C(=O)[C@H](C)[C@H]3N(CCNC(=O)c4ccccc4CC=CCO2)C(=O)O[C@]13C` .
Result: 25
